Biological target: α4β1 integrin (Homo sapiens, UniProt P05556+P13612)
Construct: monitoring the capture of α4β1 expressing cells; endogenous in cells; host or cells: Jurkat
Sequence (P13612 34-1032): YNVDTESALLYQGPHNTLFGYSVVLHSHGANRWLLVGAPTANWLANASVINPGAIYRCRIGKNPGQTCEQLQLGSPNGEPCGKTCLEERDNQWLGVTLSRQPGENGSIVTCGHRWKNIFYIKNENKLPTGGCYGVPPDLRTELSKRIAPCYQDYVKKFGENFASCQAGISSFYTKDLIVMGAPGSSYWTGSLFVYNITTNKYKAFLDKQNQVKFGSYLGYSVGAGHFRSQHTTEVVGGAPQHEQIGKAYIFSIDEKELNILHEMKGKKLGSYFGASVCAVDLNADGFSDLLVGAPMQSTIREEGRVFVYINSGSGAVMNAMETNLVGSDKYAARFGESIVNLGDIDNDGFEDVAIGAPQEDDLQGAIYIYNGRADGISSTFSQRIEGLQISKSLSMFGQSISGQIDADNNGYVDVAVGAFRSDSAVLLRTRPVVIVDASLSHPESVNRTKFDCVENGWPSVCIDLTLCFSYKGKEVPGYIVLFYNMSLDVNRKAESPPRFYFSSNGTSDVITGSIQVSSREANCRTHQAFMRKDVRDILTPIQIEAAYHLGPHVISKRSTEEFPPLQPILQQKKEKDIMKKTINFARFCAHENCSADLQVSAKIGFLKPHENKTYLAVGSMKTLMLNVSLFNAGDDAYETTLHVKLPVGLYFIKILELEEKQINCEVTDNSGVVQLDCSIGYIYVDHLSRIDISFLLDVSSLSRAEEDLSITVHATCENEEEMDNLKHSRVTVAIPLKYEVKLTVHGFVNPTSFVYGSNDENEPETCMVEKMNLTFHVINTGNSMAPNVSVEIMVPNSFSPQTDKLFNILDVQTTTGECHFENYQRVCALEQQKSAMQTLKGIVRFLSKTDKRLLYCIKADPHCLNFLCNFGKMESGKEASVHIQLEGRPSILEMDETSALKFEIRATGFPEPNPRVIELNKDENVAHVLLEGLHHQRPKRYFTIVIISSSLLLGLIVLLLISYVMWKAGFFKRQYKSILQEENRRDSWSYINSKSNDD
Sequence (P05556 21-798): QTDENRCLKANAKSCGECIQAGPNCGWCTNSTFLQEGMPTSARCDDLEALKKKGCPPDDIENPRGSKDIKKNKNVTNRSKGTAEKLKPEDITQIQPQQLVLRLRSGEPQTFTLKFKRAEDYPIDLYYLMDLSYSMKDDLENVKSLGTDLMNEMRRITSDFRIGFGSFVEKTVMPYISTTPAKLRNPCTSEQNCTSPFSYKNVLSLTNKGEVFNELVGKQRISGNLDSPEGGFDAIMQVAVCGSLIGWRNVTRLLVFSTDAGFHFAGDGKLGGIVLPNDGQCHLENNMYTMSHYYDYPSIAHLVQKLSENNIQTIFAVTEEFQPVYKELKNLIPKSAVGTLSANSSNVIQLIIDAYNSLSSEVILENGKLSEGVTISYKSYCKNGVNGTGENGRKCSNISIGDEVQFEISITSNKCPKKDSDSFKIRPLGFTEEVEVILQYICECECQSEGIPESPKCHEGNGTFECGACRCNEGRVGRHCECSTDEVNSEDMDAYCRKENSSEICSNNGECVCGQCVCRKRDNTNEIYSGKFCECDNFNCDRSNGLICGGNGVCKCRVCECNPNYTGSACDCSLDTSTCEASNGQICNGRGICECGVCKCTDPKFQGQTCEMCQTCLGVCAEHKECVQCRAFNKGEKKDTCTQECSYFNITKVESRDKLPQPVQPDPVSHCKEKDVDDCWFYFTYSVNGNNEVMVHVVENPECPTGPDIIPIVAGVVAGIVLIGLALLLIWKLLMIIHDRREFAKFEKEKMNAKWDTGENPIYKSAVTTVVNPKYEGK
Assay: α4β1 Cell Capture Assay
Type: cell-based
Conditions: capture of α4β1 expressing Jurkat cells on VCAM-1 extracellular domain-coated plate; Table 1
Experimental: The potency of inhibitors in preventing α4β1 integrin interaction with VCAM-1 was measured by monitoring the capture of α4β1 expressing cells to a recombinant VCAM-1 extracellular domain-coated plate. […] Jurkat cells were spun down and re-suspended in assay medium (DMEM+0.5% FBS+0.5 mM MnCl2) at a density of 0.5×10^6 cells/ml. […] The cells that were bound to the plate were counted and plotted against the compound concentration to determine the EC50 of the test compounds.
Entries and their EC50 values follow.
Please respond with the number in nM and leave the unit unwritten.

{"columns": ["Molecule", "EC50 (nM)"],
 "data": [
  ["Cc1cc(N2CCOC[C@@H]2CC(F)F)cc(F)c1C(=O)N[C@@H](Cc1ccc(-n2c(=O)c3ccncc3n(C)c2=O)nc1)C(=O)O [Example 69]", 20.8],
  ["Cc1cc(N2CCOC[C@@H]2CC(F)F)cc(F)c1C(=O)N[C@@H](Cc1ccc(-n2c(=O)c3c(n(C)c2=O)CCOC3)cc1)C(=O)O [Example 57]", 2.8]
]}

Field request: EC50 | item: Cc1cc(N2CCOC[C@@H]2C(F)(F)F)cc(F)c1C(=O)N[C@@H](Cc1ccc(-c2nc(C)c(C)n(C)c2=O)c(Cl)c1)C(=O)O [Example 7]
15.3

Look at this molecule and give its reported EC50. Cc1cc(N2CCOC[C@@H]2C(F)(F)F)cc(F)c1C(=O)N[C@@H](Cc1ccc(-n2c(=O)c3c(n(C)c2=O)COCC3)cc1)C(=O)O [Example 63]
3.7

Fill in the blank: the reported EC50 of CC[C@@H](Nc1cc(F)c(C(=O)N[C@@H](Cc2ccc(-n3c(=O)c4ccncc4n(C)c3=O)nc2)C(=O)O)c(F)c1)C(F)(F)F [Example 9] is ____.
117

Look up EC50: Cc1cc(N2CCOC[C@@H]2C(F)(F)F)cc(F)c1C(=O)N[C@@H](Cc1ccc(-n2c(=O)c3c(n(C)c2=O)CCC3)cc1)C(=O)O [Example 64]
1.8

Sourced from patent US11578069B2
